Molecular target: Tyrosine-protein kinase Lyn (Homo sapiens) (UniProt P07948)
Sequence (P07948 2-512 limits assumed): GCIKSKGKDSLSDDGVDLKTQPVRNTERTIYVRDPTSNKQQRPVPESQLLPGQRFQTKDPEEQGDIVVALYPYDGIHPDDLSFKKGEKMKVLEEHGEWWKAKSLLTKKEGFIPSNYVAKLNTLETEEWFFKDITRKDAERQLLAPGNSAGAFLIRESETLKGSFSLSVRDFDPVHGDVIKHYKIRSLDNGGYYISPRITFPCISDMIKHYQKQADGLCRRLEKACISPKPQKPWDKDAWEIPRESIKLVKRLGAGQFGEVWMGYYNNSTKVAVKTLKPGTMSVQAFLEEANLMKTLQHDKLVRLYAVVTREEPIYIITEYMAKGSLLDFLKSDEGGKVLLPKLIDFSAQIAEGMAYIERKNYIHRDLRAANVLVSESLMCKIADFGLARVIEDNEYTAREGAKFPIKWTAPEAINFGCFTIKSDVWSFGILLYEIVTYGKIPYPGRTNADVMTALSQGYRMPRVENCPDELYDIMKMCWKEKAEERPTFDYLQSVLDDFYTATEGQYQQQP
Assay: Inhibition of LYN (unknown origin) at 30 uM by microfluidic assay relative to control
measured quantity: inhibition (%)

a. Cc1[nH]c(-c2ccccc2)c(-c2ccccc2)c1C(=O)c1cn(-c2ccccc2)nc1-c1ccccc1
b. Cc1[nH]c(-c2ccccc2)c(-c2ccccc2)c1-c1nnc(C)c2nn(-c3ccccc3)cc12
c. Cc1[nH]c(-c2ccccc2)c(-c2ccccc2)c1-c1nnc(O)c2nn(-c3ccccc3)cc12
Exercise: Rank the 3 molecules: largest inhibition first, smallest last. Write out the labels following the order that was asked for.
Solution: a, c, b
(a: 24%, c: 5%, b: 3%)

A. Cc1[nH]c(-c2ccccc2)c(-c2ccccc2)c1C(=O)c1cn(-c2ccccc2)nc1C(=O)Nc1ccccc1
B. CCOC(=O)c1nn(-c2ccccc2)cc1C(=O)c1c(C)[nH]c(-c2ccccc2)c1-c1ccccc1
Exercise: Recorded inhibition values differ for A and B ; which one is higher? State the label of the item chosen.
Solution: A

* * *

Molecular target: Mitogen-activated protein kinase 14 (Homo sapiens)
Experiment: Inhibition of p38a (unknown origin) at 30 uM by microfluidic assay relative to control
measured quantity: inhibition (%)

These recorded examples may help you get a feel for the data.
> print(dat)
                           substance.smiles  quantitative.readout
1  Cc1[nH]c(-c2ccccc2)c(-c2ccccc2)c1C(=O)c1coc2ccc(O)cc12                    24
2  Cc1[nH]c(-c2ccccc2)c(-c2ccccc2)c1C(=O)c1cn(-c2ccccc2)nc1C(=O)Nc1ccccc1                    13

I. Cc1[nH]c(-c2ccccc2)c(-c2ccccc2)c1C(=O)c1cn(-c2ccccc2)nc1-c1ccccc1
II. CC(=O)c1nn(-c2ccccc2)cc1C(=O)c1c(C)[nH]c(-c2ccccc2)c1-c1ccccc1
Exercise: Recorded inhibition values differ for I and II ; which one is higher? State the label of the item chosen.
Solution: I

* * *

Biological target: Tyrosine-protein kinase ABL1 (Homo sapiens)
Experiment: Inhibition of ABL (unknown origin) at 30 uM by microfluidic assay relative to control
measured quantity: inhibition (%)

> print(dat)
                           substance.smiles  quantitative.readout
1  CCOC(=O)c1nn(-c2ccccc2)cc1C(=O)c1c(C)[nH]c(-c2ccccc2)c1-c1ccccc1                     2

P. Cc1[nH]c(-c2ccccc2)c(-c2ccccc2)c1-c1ccc(NC(=O)c2ccccc2)c(=O)o1
Q. Cc1[nH]c(-c2ccccc2)c(-c2ccccc2)c1C(=O)c1cn(-c2ccccc2)nc1-c1ccccc1
R. Cc1[nH]c(-c2ccccc2)c(-c2ccccc2)c1-c1nnc(O)c2nn(-c3ccccc3)cc12
Exercise: Rank the items in ascending order with respect to inhibition. Write out the labels following the order that was asked for.
Solution: P, Q, R
(P: 2%, Q: 3%, R: 5%)

* * *

Molecular target: Glycogen synthase kinase-3 (Homo sapiens) (UniProt P49840+P49841)
Sequence (P49840 whole entry, looked up): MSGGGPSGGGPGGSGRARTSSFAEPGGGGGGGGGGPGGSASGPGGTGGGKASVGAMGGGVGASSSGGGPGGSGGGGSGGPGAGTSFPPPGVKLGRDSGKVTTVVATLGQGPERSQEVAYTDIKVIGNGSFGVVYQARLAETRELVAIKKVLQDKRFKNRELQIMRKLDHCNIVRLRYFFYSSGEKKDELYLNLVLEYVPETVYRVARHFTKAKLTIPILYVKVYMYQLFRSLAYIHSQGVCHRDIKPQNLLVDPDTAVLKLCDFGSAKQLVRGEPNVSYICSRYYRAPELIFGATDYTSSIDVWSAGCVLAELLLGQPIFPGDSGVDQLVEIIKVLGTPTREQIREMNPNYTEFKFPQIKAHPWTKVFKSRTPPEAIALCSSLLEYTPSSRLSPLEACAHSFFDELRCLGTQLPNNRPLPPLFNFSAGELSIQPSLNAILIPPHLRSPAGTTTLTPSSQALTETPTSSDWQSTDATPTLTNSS
Sequence (P49841 whole entry, looked up): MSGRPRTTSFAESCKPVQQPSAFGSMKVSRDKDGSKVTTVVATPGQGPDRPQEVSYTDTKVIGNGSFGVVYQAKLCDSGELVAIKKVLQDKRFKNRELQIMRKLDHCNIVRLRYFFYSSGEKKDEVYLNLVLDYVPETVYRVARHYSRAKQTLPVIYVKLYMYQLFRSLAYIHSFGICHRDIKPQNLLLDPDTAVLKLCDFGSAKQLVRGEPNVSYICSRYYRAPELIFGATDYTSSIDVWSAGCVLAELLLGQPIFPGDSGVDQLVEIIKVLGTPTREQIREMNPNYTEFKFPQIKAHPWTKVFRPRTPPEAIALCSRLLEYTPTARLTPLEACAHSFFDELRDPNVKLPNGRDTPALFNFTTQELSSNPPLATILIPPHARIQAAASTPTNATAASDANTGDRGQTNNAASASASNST
Experiment: Inhibition of GSK3 (unknown origin) at 30 uM by microfluidic assay relative to control
Format: protein assay
measured quantity: inhibition (%)

> print(dat)
                           substance.smiles  quantitative.readout
1  Cc1[nH]c(-c2ccccc2)c(-c2ccccc2)c1C(=O)c1coc2c1cc(O)c1ccccc12                     2

1. Cc1[nH]c(-c2ccccc2)c(-c2ccccc2)c1-c1ccc(NC(=O)c2ccccc2)c(=O)o1
2. Cc1[nH]c(-c2ccccc2)c(-c2ccccc2)c1C(=O)c1cn(-c2ccccc2)nc1-c1ccccc1
Exercise: Recorded inhibition values differ for 1 and 2 ; which one is higher? State the label of the item chosen.
Solution: 2

a. CCOC(=O)c1nn(-c2ccccc2)cc1C(=O)c1c(C)[nH]c(-c2ccccc2)c1-c1ccccc1
b. Cc1[nH]c(-c2ccccc2)c(-c2ccccc2)c1-c1nnc(O)c2nn(-c3ccccc3)cc12
c. Cc1[nH]c(-c2ccccc2)c(-c2ccccc2)c1-c1nnc(C)c2nn(-c3ccccc3)cc12
Exercise: # desc sort on inhibition across 3 molecules Write out the labels following the order that was asked for.
Solution: b, a, c
(b: 43%, a: 13%, c: 2%)

A. CC(=O)c1nn(-c2ccccc2)cc1C(=O)c1c(C)[nH]c(-c2ccccc2)c1-c1ccccc1
B. Cc1[nH]c(-c2ccccc2)c(-c2ccccc2)c1C(=O)c1cn(-c2ccccc2)nc1C(=O)Nc1ccccc1
C. Cc1[nH]c(-c2ccccc2)c(-c2ccccc2)c1C(=O)c1coc2ccc(O)cc12
Exercise: Rank the items in ascending order with respect to inhibition. Write out the labels following the order that was asked for.
Solution: C, A, B

* * *

Biological target: Mitogen-activated protein kinase 14 (Homo sapiens) (UniProt Q16539)
Sequence (Q16539 whole entry): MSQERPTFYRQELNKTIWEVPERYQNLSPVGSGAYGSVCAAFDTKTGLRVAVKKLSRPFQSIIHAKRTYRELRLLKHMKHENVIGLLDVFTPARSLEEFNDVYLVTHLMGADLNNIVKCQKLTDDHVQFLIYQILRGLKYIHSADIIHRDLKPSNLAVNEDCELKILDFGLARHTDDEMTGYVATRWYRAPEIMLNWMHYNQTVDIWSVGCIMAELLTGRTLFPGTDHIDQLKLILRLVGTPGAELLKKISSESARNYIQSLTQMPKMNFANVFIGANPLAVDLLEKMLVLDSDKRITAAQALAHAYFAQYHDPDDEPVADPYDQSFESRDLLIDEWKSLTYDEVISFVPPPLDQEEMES
Assay: Inhibition of p38a (unknown origin) at 30 uM by microfluidic assay relative to control
measured quantity: inhibition (%)

These recorded examples may help you get a feel for the data.
> print(dat)
                           substance.smiles  quantitative.readout
1  CCOC(=O)c1nn(-c2ccccc2)cc1C(=O)c1c(C)[nH]c(-c2ccccc2)c1-c1ccccc1                     2
2  Cc1[nH]c(-c2ccccc2)c(-c2ccccc2)c1-c1nnc(C)c2nn(-c3ccccc3)cc12                     4
3  Cc1[nH]c(-c2ccccc2)c(-c2ccccc2)c1C(=O)c1coc2c1cc(O)c1ccccc12                    21

A. Cc1[nH]c(-c2ccccc2)c(-c2ccccc2)c1-c1nnc(O)c2nn(-c3ccccc3)cc12
B. Cc1[nH]c(-c2ccccc2)c(-c2ccccc2)c1-c1ccc(NC(=O)c2ccccc2)c(=O)o1
Exercise: # min-compare on inhibition between A and B State the label of the item chosen.
Solution: A

* * *

Target: UniProt P12931
Sequence (P12931 2-536 limits assumed): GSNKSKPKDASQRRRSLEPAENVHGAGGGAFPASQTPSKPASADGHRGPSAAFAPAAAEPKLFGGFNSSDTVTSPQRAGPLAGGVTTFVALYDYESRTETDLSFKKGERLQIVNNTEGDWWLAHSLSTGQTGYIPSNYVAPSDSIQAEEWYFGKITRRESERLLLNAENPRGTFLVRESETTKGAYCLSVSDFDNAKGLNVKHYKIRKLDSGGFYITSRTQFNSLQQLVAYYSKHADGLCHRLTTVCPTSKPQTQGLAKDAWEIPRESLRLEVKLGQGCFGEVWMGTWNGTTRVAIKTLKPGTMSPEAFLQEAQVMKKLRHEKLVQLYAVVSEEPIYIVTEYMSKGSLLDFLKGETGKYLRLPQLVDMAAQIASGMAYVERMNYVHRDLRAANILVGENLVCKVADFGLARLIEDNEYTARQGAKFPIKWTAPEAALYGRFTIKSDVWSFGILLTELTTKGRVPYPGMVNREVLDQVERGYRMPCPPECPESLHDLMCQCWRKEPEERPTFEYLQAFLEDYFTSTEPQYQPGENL
Assay: Inhibition of SRC (unknown origin) at 30 uM by microfluidic assay relative to control
measured quantity: inhibition (%)

> print(dat)
                           substance.smiles  measured.quantity  quantitative.readout
1  Cc1[nH]c(-c2ccccc2)c(-c2ccccc2)c1-c1ccc(NC(=O)c2ccccc2)c(=O)o1         inhibition                    12
2  CC(=O)c1nn(-c2ccccc2)cc1C(=O)c1c(C)[nH]c(-c2ccccc2)c1-c1ccccc1         inhibition                    21
3  Cc1[nH]c(-c2ccccc2)c(-c2ccccc2)c1-c1nnc(O)c2nn(-c3ccccc3)cc12         inhibition                    23
4  CCOC(=O)c1nn(-c2ccccc2)cc1C(=O)c1c(C)[nH]c(-c2ccccc2)c1-c1ccccc1         inhibition                    23
5  Cc1[nH]c(-c2ccccc2)c(-c2ccccc2)c1C(=O)c1coc2ccc(O)cc12         inhibition                    32
6  Cc1[nH]c(-c2ccccc2)c(-c2ccccc2)c1C(=O)c1cn(-c2ccccc2)nc1C(=O)Nc1ccccc1         inhibition                    33

a. Cc1[nH]c(-c2ccccc2)c(-c2ccccc2)c1C(=O)c1cn(-c2ccccc2)nc1-c1ccccc1
b. Cc1[nH]c(-c2ccccc2)c(-c2ccccc2)c1C(=O)c1coc2c1cc(O)c1ccccc12
Exercise: # min-compare on inhibition between a and b State the label of the item chosen.
Solution: a

* * *

Target: Tyrosine-protein kinase Lck (Homo sapiens)
Assay: Inhibition of LCK (unknown origin) at 30 uM by microfluidic assay relative to control
measured quantity: inhibition (%)

These recorded examples may help you get a feel for the data.
> print(dat)
                           substance.smiles                               test.target  quantitative.readout
1  Cc1[nH]c(-c2ccccc2)c(-c2ccccc2)c1C(=O)c1cn(-c2ccccc2)nc1C(=O)Nc1ccccc1  Tyrosine-protein kinase Lck (Homo sapiens)                    25
2  Cc1[nH]c(-c2ccccc2)c(-c2ccccc2)c1C(=O)c1coc2ccc(O)cc12  Tyrosine-protein kinase Lck (Homo sapiens)                    32
3  CC(=O)c1nn(-c2ccccc2)cc1C(=O)c1c(C)[nH]c(-c2ccccc2)c1-c1ccccc1  Tyrosine-protein kinase Lck (Homo sapiens)                    22
4  Cc1[nH]c(-c2ccccc2)c(-c2ccccc2)c1-c1ccc(NC(=O)c2ccccc2)c(=O)o1  Tyrosine-protein kinase Lck (Homo sapiens)                    34
5  Cc1[nH]c(-c2ccccc2)c(-c2ccccc2)c1C(=O)c1coc2c1cc(O)c1ccccc12  Tyrosine-protein kinase Lck (Homo sapiens)                    32

I. Cc1[nH]c(-c2ccccc2)c(-c2ccccc2)c1-c1nnc(C)c2nn(-c3ccccc3)cc12
II. CCOC(=O)c1nn(-c2ccccc2)cc1C(=O)c1c(C)[nH]c(-c2ccccc2)c1-c1ccccc1
Exercise: # min-compare on inhibition between I and II State the label of the item chosen.
Solution: II

# credit: ChEMBL document CHEMBL3739348
